Origin of the recorded values: the supplement of paper PMC12855868

B1: library; numbered along this chain (parent)
chain: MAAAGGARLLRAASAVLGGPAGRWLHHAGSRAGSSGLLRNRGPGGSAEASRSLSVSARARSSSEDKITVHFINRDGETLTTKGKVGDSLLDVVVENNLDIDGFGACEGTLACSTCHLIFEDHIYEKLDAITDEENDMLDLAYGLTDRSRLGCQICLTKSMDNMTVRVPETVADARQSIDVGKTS

# Variants of: B1
# experiment-summary: scaled log2 fold change in cell abundance, elesclomol vs control (0 = silent mean, 1 = nonsense mean) (scaled log2 ratio); higher = higher viability under elesclomol (loss of FDX1 cuproptosis function);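 also: variant abundance is its share of total variant reads in each endpoint sample, from next-generation sequencing of the integrated ORF PCR-amplified out of genomic DNA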
# settings: with ABC1 FDX1 KO; elesclomol 5 nM; glucose 10 mM; 14 days
measurement-type: scaled log2 fold change
Simply state the number, no unit and no words.

Record excerpt, results attached:
# variant-string, measurement
rows = [
    ("D139Y", -0.145),
    ("A57L", -0.263),
    ("P168N", 0.157),
    ("E107Q", -0.324),
    ("P43H", 0.442),
]

The value of scaled log2 fold change measured for the variant "Q153Y" turned out to be 0.621

The value of scaled log2 fold change measured for the variant "H122T" turned out to be 0.191

The value of scaled log2 fold change measured for the variant "D91S" turned out to be -0.972

The value of scaled log2 fold change measured for the variant "C115E" turned out to be 1.27

The value of scaled log2 fold change measured for the variant "R74N" turned out to be -1.08

The value of scaled log2 fold change measured for the variant "Q176P" turned out to be 0.375

The value of scaled log2 fold change measured for the variant "D136F" turned out to be 0.493

The value of scaled log2 fold change measured for the variant "T170Y" turned out to be 0.0553

The value of scaled log2 fold change measured for the variant "E169G" turned out to be -1.32

The value of scaled log2 fold change measured for the variant "R51M" turned out to be -0.235

The value of scaled log2 fold change measured for the variant "T164Y" turned out to be -1.38

The value of scaled log2 fold change measured for the variant "A172H" turned out to be -0.391

The value of scaled log2 fold change measured for the variant "T78L" turned out to be -0.709

The value of scaled log2 fold change measured for the variant "I72F" turned out to be -0.0218

The value of scaled log2 fold change measured for the variant "G36L" turned out to be 0.19

The value of scaled log2 fold change measured for the variant "G5Q" turned out to be 0.0157

The value of scaled log2 fold change measured for the variant "E107M" turned out to be -0.428

The value of scaled log2 fold change measured for the variant "A141T" turned out to be 0.135
